The entries below are paired with their reported ELISA reading.
# target desc: T1, soluble KDR extracellular domain (ECD) (Calbiochem) (human, UniProt P35968 20-764)
# T1 construct: extracellular domain; Bought protein; also called KDR-ECD; VEGF Receptor 2 D1-7, Cat. #676490
# T1 sequence (P35968 20-764): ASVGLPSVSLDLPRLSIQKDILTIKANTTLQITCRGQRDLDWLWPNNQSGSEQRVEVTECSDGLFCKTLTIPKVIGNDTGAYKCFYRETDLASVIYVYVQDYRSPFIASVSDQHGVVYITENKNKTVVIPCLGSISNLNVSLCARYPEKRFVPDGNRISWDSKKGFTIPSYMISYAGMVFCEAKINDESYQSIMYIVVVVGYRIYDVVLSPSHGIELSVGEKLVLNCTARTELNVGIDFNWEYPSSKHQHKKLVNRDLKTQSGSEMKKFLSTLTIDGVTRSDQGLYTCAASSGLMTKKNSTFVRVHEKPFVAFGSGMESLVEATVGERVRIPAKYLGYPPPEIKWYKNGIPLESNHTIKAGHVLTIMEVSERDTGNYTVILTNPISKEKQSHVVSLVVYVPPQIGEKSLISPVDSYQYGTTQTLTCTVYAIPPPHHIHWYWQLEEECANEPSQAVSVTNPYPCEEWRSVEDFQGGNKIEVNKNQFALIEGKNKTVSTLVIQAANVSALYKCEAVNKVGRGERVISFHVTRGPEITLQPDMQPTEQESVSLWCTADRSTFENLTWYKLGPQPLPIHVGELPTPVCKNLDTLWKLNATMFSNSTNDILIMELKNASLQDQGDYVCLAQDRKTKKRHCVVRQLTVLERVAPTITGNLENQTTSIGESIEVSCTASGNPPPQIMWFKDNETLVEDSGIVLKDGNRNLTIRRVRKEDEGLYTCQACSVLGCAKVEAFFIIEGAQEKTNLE
# assay summary: Limited Antigen ELISA, KDR coat 12.5 ng/mL, supernatant 1:25
Answer as a number with no unit attached.

For orientation, consider the following solved cases.
binder	value
29A3 (antibody, V domains shown, Fully human mAb from XenoMouse hybridoma, tested as hybridoma supernatant) VH: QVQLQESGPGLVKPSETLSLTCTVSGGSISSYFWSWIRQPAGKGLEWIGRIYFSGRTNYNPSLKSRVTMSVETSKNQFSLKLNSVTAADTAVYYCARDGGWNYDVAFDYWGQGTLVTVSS VL: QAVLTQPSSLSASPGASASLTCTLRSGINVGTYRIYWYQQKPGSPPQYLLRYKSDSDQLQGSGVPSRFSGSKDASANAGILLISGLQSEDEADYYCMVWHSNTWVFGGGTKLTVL	0.49
21H6 (antibody, V domains shown, Fully human mAb from XenoMouse hybridoma, tested as hybridoma supernatant) VH: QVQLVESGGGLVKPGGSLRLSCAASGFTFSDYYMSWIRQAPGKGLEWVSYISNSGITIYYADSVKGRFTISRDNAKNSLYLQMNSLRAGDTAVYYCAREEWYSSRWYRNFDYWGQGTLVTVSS VL: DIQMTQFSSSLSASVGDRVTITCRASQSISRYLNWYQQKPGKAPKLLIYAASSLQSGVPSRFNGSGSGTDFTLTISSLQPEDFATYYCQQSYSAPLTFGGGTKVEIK	0.52
29F7 (antibody, V domains shown, Fully human mAb from XenoMouse hybridoma, tested as hybridoma supernatant) VH: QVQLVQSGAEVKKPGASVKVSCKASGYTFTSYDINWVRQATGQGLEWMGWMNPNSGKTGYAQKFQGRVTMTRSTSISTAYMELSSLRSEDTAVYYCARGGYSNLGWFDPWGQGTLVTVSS VL: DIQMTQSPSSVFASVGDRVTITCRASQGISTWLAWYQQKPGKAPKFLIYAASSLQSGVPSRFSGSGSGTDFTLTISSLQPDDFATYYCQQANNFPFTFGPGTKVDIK	1
32F4 (antibody, V domains shown, Fully human mAb from XenoMouse hybridoma, tested as hybridoma supernatant) VH: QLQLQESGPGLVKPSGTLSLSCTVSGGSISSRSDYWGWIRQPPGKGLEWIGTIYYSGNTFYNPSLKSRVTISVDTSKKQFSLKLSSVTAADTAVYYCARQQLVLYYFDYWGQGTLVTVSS VL: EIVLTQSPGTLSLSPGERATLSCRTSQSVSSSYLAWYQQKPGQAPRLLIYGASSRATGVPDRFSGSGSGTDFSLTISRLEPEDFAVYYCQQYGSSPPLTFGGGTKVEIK	0.74
27A3 (antibody, V domains shown, Fully human mAb from XenoMouse hybridoma, tested as hybridoma supernatant) VH: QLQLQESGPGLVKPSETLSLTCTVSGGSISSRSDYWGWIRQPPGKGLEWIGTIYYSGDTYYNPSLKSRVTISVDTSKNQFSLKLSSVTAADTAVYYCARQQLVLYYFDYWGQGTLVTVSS VL: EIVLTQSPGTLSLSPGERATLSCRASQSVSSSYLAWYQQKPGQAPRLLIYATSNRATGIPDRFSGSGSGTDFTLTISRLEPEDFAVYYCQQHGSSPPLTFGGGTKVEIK	0.54
31E11 (antibody, V domains shown, Fully human mAb from XenoMouse hybridoma, tested as hybridoma supernatant) VH: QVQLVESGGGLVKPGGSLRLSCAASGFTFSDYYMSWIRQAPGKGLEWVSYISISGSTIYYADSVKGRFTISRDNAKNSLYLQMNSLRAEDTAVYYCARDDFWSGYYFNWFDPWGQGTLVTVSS VL: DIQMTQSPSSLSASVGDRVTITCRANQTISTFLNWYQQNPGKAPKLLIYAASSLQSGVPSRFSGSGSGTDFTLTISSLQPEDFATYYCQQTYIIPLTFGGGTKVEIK	0.68
1G6 (antibody, V domains shown, Fully human mAb from XenoMouse hybridoma, tested as hybridoma supernatant) VH: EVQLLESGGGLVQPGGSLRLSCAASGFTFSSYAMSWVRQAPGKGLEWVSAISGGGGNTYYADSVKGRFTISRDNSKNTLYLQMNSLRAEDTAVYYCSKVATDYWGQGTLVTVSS VL: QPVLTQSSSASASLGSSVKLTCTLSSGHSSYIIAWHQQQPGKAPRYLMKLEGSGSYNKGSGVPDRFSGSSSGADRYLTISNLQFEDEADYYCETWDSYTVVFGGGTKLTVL	0.32

Q) // lookup ELISA reading for 22B8 (antibody, V domains shown, Fully human mAb from XenoMouse hybridoma, tested as hybridoma supernatant) VH: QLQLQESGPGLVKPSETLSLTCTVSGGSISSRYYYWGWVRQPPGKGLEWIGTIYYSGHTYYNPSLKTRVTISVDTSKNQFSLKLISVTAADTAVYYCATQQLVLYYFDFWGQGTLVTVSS VL: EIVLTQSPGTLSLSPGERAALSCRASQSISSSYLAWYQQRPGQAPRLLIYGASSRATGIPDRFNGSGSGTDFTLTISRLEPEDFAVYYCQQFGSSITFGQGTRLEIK
A) 0.91

Where do the numbers come from? From patent US20100260765A1.
